Test: chemical genetic growth profiling, strain panel (AID 1159580);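 note: tested at 20 µM; growth read once vehicle control cultures reached saturation at 30 °C; 1 = growth at the plate median or of vehicle wells; lower values mean less growth of the strain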
Settings: S. cerevisiae deletion strains, growth OD, locus YOR080W, strain dia2, hits give low values
Among all 5,500 compounds or so, about 2,000 (36%) were called active. Inconclusive results (about 18%) are left out. This is one part of the list.
# normalized growth per record follows
Respond using a number only.

| Compound | normalized growth |
| --- | --- |
| CN(C)[C@@H]1C(=O)C(C(N)=O)=C(O)[C@@]2(O)C(=O)C3=C(O)c4c(O)cccc4[C@@](C)(O)[C@H]3[C@H](O)[C@@H]12 | 1.01 |

Req: I am curious: what normalized growth value has been reported for CC(C)CCCC(C)[C@H]1CCC2C3CC=C4C[C@@H](O)CC[C@]4(C)C3CC[C@@]21C (stereo partly specified) ?
Resp: 0.991

Req: I am curious: what normalized growth value has been reported for CC1(C)CC2C1CC[C@]1(CBr)CCC3C(CC(=O)O)C(=O)O[C@@]32C1 (stereo partly specified) ?
Resp: 1

###

Assay: chemical genetic growth profiling, strain panel (AID 1159580);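 note: tested at 20 µM; growth read once vehicle control cultures reached saturation at 30 °C; 1 = growth at the plate median or of vehicle wells; lower values mean less growth of the strain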
Conditions: S. cerevisiae deletion strains, growth OD, locus YLR027C, strain aat2, hits give low values
In all, about 5,500 compounds went through this assay and about 2,000 (36%) were called active. Not shown: some 18% with an inconclusive outcome. The list shows a part of the results.
Endpoint: normalized growth
Respond using a number only.

Sample answers from the record:
| Compound | Endpoint | Value measured |
| --- | --- | --- |
| COc1ccc(C2Sc3ccccc3N(CCN(C)C)C(=O)C2OC(C)=O)cc1 (configuration not stated) | normalized growth | 0.974 |
| CO[C@H]1CC(O[C@@H]2/C(C)=C/C[C@@H]3C[C@@H](C[C@]4(CC[C@H](C)[C@@H](C5CCCCC5)O4)O3)OC(=O)[C@@H]3C=C(C)/C(=N\O)[C@H]4OC/C(=C\C=C\[C@@H]2C)[C@]43O)O[C@@H](C)C1O (some centres not stated) | normalized growth | 1.01 |
| CN(C)CCCN1c2ccccc2Sc2ccc(C(F)(F)F)cc21 | normalized growth | 0.992 |
| Cc1cc(=O)[nH]c(=S)[nH]1 | normalized growth | 0.973 |
| O=C1NC(O)=NC1(c1ccccc1)c1ccccc1 | normalized growth | 1.02 |

Req: I am curious: what normalized growth value has been reported for CN(C)C(=O)Oc1cccc([N+](C)(C)C)c1 ?
Resp: 0.984

Req: I am curious: what normalized growth value has been reported for Oc1cccc(O)c1 ?
Resp: 0.992

Req: I am curious: what normalized growth value has been reported for CN(C)CCCN1c2ccccc2Sc2ccccc21 ?
Resp: 0.999

Req: I am curious: what normalized growth value has been reported for CC(C)=CC1C(C(=O)O)C1(C)C (configuration not stated) ?
Resp: 0.987

Req: I am curious: what normalized growth value has been reported for CN(C)[C@@H]1C(=O)C(C(N)=O)=C(O)[C@@]2(O)C(=O)C3=C(O)c4c(O)ccc(Cl)c4[C@@](C)(O)[C@H]3C[C@@H]12 ?
Resp: 0.987

Req: I am curious: what normalized growth value has been reported for CC(C)CCCC(C)[C@H]1CCC2C3C(=O)C=C4C[C@@H](O)CC[C@]4(C)C3CC[C@@]21C (some centres not stated) ?
Resp: 0.989

Req: I am curious: what normalized growth value has been reported for COC(=O)c1c(OC)cc2c(c1C)Oc1c(Cl)c(O)c(Cl)c(C)c1C(=O)O2 ?
Resp: 0.991
